Assay: qHTS Assay for Rab9 Promoter Activators: Hit Validation Using Renilla Luciferase Read-Out for Rab9
Conditions: Huh7 Rab9 promoter Renilla luciferase reporter, 24 h; series mostly up to 76.9 µM
Inconclusive results are not listed. Activity calls are given as the source filed them. The call rests on the fitted dose curve; in most records, active means well fitted activation curve with a large enough effect; inconclusive means small, poorly fitted or top-dose-only effect; inactive means no such curve, though single readings can be large or run the other way.
READOUT: outcome

Illustrative cases are given below, each with its answer.
CC(Sc1nnc(C(F)(F)F)n1C)C(=O)Nc1ccc(S(N)(=O)=O)cc1 (stereo unspecified) :: inactive
FC(F)(F)c1ccc(Nc2nnnc3ccccc23)cc1 :: inactive
COC(=O)c1cn(NC(=O)C2CCCCC2)c(=O)c2ccccc12 :: inactive
CCOC(=O)c1csc(COc2ccc(OC)cc2)n1 :: inactive
Nc1c(N(CCO)C(=O)/C=C/c2ccco2)c(=O)[nH]c(=O)n1Cc1ccccc1 :: inactive

Record outcome for all entries; do not skip any.
1. CCC(C)(C)NC(=O)C(c1ccc(OC)cc1)N(Cc1cccs1)C(=O)CCC(=O)Nc1cc(C)on1 (stereo unspecified)
2. COCC1CCN(C(=O)c2ccc3oc(Cc4ccccc4)nc3c2)C1 (stereo unspecified)
3. COC(=O)c1ccccc1NC(=O)c1cc(-c2cccs2)on1
4. O=C(NCCc1ccccc1)c1cc2ncc(Br)cn2n1
5. Cc1ccc(C(=O)c2cn[nH]c2-c2ccccc2O)cc1

## Output
["inactive", "inactive", "inactive", "inactive", "inactive"]

Measured outcome of CCC1CCCCN1CCCNC(=O)c1ccc2nc(N3CCCCC3)sc2c1 (stereo unspecified) : inactive
